Target or system CDK6 (Homo sapiens (Human), UniProt Q00534); recorded quantity IC50.

Reference set (3 entries):
[[record]]
compound = "CCN1CCN(Cc2ccc(Nc3ncc(F)c(-c4ccc5c(c4)c(C(C)=O)cn5C4CCCC4)n3)nc2)CC1 [Compound I-4]"
reported_measurement = "20 to 100 nM"

[[record]]
compound = "CC(C)n1c(C(=O)N(C)C)cc2nc(-c3nc(Nc4ccc(N5CCNCC5)cn4)ncc3F)ccc21 [Compound I-25]"
reported_measurement = "≤ 20 nM"

[[record]]
compound = "CCN1CCN(Cc2ccc(Nc3ncc(F)c(-c4ncc5nc(C)n(C(C)C)c5n4)n3)nc2)CC1 [Compound I-9]"
reported_measurement = "20 to 100 nM"


Field: IC50 (CDK6 (Homo sapiens (Human), UniProt Q00534)). Entry: CCN1CCN(Cc2ccc(Nc3ncc(F)c(-c4ccc5c(c4)c(C(C)=O)nn5C(C)C)n3)nc2)CC1 [Compound I-44] > 500 nM

* * *

- system under test: CDK6 (Homo sapiens (Human), UniProt Q00534)
- Sequence (Q00534 whole entry): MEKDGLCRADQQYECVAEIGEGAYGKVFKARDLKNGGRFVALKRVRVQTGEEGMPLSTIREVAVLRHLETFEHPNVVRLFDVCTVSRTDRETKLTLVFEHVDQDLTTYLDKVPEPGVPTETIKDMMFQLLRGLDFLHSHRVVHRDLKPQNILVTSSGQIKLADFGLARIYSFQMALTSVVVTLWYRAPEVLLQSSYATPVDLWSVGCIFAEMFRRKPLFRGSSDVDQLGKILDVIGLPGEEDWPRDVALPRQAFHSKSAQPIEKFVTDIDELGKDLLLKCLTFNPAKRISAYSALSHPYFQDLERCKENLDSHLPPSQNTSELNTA
- Sequence (P30281 whole entry partner): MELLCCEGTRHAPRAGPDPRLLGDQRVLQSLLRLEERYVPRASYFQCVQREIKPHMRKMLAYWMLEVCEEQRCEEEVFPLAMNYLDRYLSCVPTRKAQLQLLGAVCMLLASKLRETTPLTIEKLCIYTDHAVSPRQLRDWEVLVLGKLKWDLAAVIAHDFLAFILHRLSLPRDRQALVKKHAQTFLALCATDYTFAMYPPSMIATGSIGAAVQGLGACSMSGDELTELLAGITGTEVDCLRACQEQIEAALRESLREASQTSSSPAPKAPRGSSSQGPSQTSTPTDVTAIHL
pIC50: −log10 of the molar value.
Collected pIC50 values appear next to each entry.

Reference set (3 entries):
[[record]]
smiles_str = "CC(=O)c1cn(C2CCCC2)c2ccc(-c3nc(Nc4ccc(N5CCNCC5)cn4)ncc3F)cc12"
endpoint_name = "pIC50"
reported_measurement = "≥ 7.70"

[[record]]
smiles_str = "CC(C)c1c(C#N)n(C2CC2)c2ccc(-c3nc(Nc4ccc(CN5CCN(C6CC6)CC5)cn4)ncc3F)cc12"
endpoint_name = "pIC50"
reported_measurement = "7.00 to 7.70"

[[record]]
smiles_str = "CCN1CCN(Cc2ccc(Nc3ncc(F)c(-c4ccc5c(cc(C(=O)N(C)C)n5C(C)C)n4)n3)nc2)CC1"
endpoint_name = "pIC50"
reported_measurement = "7.00 to 7.70"


Next up:
Return reported pIC50; argument: Fc1cnc(Nc2ccc(CN3CCN(C4CCCCC4)CC3)cn2)nc1-c1ccc2c(c1)c(C1CCC1)cn2C1CCCCC1 < 6.30

* * *

Target or system CDK6 (Homo sapiens (Human), UniProt Q00534); recorded quantity pIC50.
pIC50: −log10 of the molar value.

[[record]]
smiles_str = "CC(=O)c1nc(C2CC2)n2cc(-c3nc(Nc4ccc(N5CCNCC5)cn4)ncc3F)cc(F)c12"
reported_measurement = "7.00 to 7.70"

[[record]]
smiles_str = "CCN1CCN(Cc2ccc(Nc3ncc(F)c(-c4ncnc5c4cc(C(C)=O)n5C4CC4)n3)nc2)CC1"
reported_measurement = "≥ 7.70"

[[record]]
smiles_str = "CC(C)n1c(C(=O)N(C)C)c(F)c2c(-c3nc(Nc4ccc(N5CCNCC5)cn4)ncc3F)ncnc21"
reported_measurement = "7.00 to 7.70"

[[record]]
smiles_str = "CCN1CCN(Cc2ccc(Nc3ncc(F)c(-c4ccc5ncc(C#N)n5c4)n3)nc2)CC1"
reported_measurement = "≥ 7.70"

[[record]]
smiles_str = "Cc1c2ccc(-c3nc(Nc4ccc(N5CCNCC5)cn4)ncc3F)cc2nn1C"
reported_measurement = "≥ 7.70"


Field: pIC50 (CDK6 (Homo sapiens (Human), UniProt Q00534)). Entry: CC(C)n1c(C2CCCC2)cc2cc(-c3nc(Nc4ccc(N5CCN(C6CCC6)CC5)cn4)ncc3F)ccc21 7.00 to 7.70

Field: pIC50 (CDK6 (Homo sapiens (Human), UniProt Q00534)). Entry: CCN1CCN(Cc2ccc(Nc3ncc(F)c(-c4ccc5nnc(C(C)C)n5c4)n3)nc2)CC1 7.00 to 7.70

Field: pIC50 (CDK6 (Homo sapiens (Human), UniProt Q00534)). Entry: CCN1CCN(Cc2ccc(Nc3ncc(F)c(-c4ncnc5c4cc(C)n5C4CCCC4)n3)nc2)CC1 6.30 to 7.00

Field: pIC50 (CDK6 (Homo sapiens (Human), UniProt Q00534)). Entry: CC(C)c1nnc2ccc(-c3nc(Nc4ccc(N5CCNCC5)cn4)ncc3F)cn12 ≥ 7.70

Field: pIC50 (CDK6 (Homo sapiens (Human), UniProt Q00534)). Entry: CC(C)n1ccc2cc(-c3nc(Nc4ccc(N5CCNCC5)cn4)ncc3F)ccc21 ≥ 7.70
